The following compounds are shown together with reported IC50 values.
Molecular target: Vascular endothelial growth factor receptor (Homo sapiens, UniProt P17948+P35916+P35968)
Assay: Inhibitory activity against VEGF-stimulated proliferation in HUVEC
Assay type: functional
# number only, unit µM dropped from output

Some solved cases for reference:
Provide IC50 value for the following compound: COc1cc2c(Nc3ccc(Cl)cc3F)ncnc2cc1OCCOCCNC(=O)C(CCCCNC(=O)CCCCC1SCC2NC(=O)NC21)NC(=O)c1c(F)c(F)c(N=[N+]=[N-])c(F)c1F (stereo not given)
40.3

Read off the recorded IC50 for COc1cc2c(Nc3ccc(Cl)cc3F)ncnc2cc1OCCNC(=O)CCCCC1SCC2NC(=O)NC21 (stereo not given)
14.7

Using known records, supply IC50 for COc1cc2c(Nc3ccc(Cl)cc3F)ncnc2cc1OCCOCCNC(=O)c1c(F)c(F)c(N=[N+]=[N-])c(F)c1F
3.2

Read off the recorded IC50 for COc1cc2c(Nc3ccc(Cl)cc3F)ncnc2cc1OCCOCCNC(=O)CCCCC1SCC2NC(=O)NC21 (stereo not given)
1.9

More entries:
Specify reported IC50 for the compound shown: COc1cc2c(Nc3ccc(Cl)cc3F)ncnc2cc1OCCNC(=O)c1c(F)c(F)c(N=[N+]=[N-])c(F)c1F
4.1
